- study.target: Beta-3 adrenergic receptor (Homo sapiens)
- method.description: Efficacy at human adrenergic beta 3 receptor transfected in CHO cells assessed as stimulation of adenylyl cyclase at 100 uM relative to isoproterenol
- Format: functional, cell-based
- Sequence (P13945 whole entry, looked up): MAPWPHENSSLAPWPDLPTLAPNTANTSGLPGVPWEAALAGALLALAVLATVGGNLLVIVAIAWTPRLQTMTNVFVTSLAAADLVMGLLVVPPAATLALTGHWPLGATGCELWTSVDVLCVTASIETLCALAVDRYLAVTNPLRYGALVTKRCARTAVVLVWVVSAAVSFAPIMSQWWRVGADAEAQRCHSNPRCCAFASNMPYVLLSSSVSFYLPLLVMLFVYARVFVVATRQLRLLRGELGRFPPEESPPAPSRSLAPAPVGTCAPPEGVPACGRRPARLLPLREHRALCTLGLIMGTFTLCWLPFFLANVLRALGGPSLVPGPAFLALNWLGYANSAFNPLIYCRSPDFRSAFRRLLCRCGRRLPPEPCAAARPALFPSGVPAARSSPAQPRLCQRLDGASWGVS
endpoint.label: Efficacy
Answer by giving the amount and then stating its unit.

# example entries with known answers
CCOC(=O)COc1ccc(C[C@@H](C)NC[C@@H](O)c2cc(Br)no2)cc1 ... 39%
C[C@H](Cc1ccc(OCC(=O)O)cc1)NC[C@@H](O)c1cc(Br)no1 ... 34%

List reported Efficacy for each of these compounds:
1. CCOC(=O)COc1ccc(C[C@@H](C)NC[C@H](O)c2cc(Br)no2)cc1
2. C[C@H](Cc1ccc(OCC(=O)O)cc1)NC[C@H](O)c1cc(Br)no1

[out]
56%
50%

List reported Efficacy for each of these compounds:
1. CCCCOc1ccc(C[C@@H](C)NC[C@@H](O)c2cc(Br)no2)cc1
2. CCCCOc1ccc(C[C@@H](C)NC[C@H](O)c2cc(Br)no2)cc1

[out]
31%
51%

###

- study.target: Beta-3 adrenergic receptor (Homo sapiens, UniProt P13945)
- method.description: Displacement of [125I]CYP from human adrenergic beta 3 receptor transfected in CHO cells in presence of 100 uM GTP
- Sequence (P13945 whole entry): as the sequence (P13945 whole entry, looked up) above
endpoint.label: pKi
Numbers only, as −log10 of the molar value.

CCOC(=O)COc1ccc(C[C@@H](C)NC[C@H](O)c2cc(Br)no2)cc1 ... 5.00
CCOC(=O)COc1ccc(C[C@@H](C)NC[C@@H](O)c2cc(Br)no2)cc1 ... 4.66
CCCCOc1ccc(C[C@@H](C)NC[C@H](O)c2cc(Br)no2)cc1 ... 5.60
C[C@H](Cc1ccc(OCC(=O)O)cc1)NC[C@H](O)c1cc(Br)no1 ... 4.66

Consider the record given below.
Value of measured pKi for the entry CCCCOc1ccc(C[C@@H](C)NC[C@@H](O)c2cc(Br)no2)cc1 : 4.97

###

- study.target: Beta-2 adrenergic receptor (Homo sapiens, UniProt P07550)
- Sequence (P07550 whole entry): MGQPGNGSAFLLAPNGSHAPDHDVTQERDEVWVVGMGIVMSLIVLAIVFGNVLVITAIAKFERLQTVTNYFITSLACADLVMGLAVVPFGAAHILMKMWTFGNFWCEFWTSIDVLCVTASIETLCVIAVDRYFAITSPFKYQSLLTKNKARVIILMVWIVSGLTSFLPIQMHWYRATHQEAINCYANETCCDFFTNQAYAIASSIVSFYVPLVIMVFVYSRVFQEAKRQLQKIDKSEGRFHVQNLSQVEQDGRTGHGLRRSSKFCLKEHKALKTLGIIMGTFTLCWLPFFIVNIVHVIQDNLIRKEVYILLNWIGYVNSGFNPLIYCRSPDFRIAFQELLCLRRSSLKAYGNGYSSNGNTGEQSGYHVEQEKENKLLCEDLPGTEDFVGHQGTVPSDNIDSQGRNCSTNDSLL
- method.description: Displacement of [125I]CYP from human adrenergic beta 2 receptor transfected in CHO cells in presence of 100 uM GTP
Hi there, I'd appreciate the recorded Ki for every entry that follows.
Give bare numbers, in nM.

CCCCOc1ccc(C[C@@H](C)NC[C@@H](O)c2cc(Br)no2)cc1 ... 458

List reported Ki for each of these compounds:
1. C[C@H](Cc1ccc(OCC(=O)O)cc1)NC[C@H](O)c1cccc(Cl)c1 (racemic)
2. C[C@H](Cc1ccc(OCC(=O)O)cc1)NC[C@@H](O)c1cc(Br)no1

[out]
2850
501

###

- study.target: UniProt P07550
- method.description: Displacement of [125I]CYP from human adrenergic beta 2 receptor transfected in CHO cells in presence of 100 uM GTP
Hi there, I'd appreciate the recorded Ki for every entry that follows.
One number for each entry, in nM.

# example entries with known answers
CCOC(=O)COc1ccc(C[C@@H](C)NC[C@H](O)c2cc(Br)no2)cc1 ... 2.82
CCCCOc1ccc(C[C@@H](C)NC[C@H](O)c2cc(Br)no2)cc1 ... 15.5
C[C@H](Cc1ccc(OCC(=O)O)cc1)NC[C@H](O)c1cc(Br)no1 ... 13.9

Value of measured Ki for the entry CCOC(=O)COc1ccc(C[C@@H](C)NC[C@@H](O)c2cc(Br)no2)cc1 : 81.4
